Hey, just so you know, these numbers are from patent US20070244048A1.

- EXPERIMENTAL_SYSTEM: T1, rat NMUR1-TTG (rat, UniProt Q9JJI5 1-425)
- T1 sequence (looked up): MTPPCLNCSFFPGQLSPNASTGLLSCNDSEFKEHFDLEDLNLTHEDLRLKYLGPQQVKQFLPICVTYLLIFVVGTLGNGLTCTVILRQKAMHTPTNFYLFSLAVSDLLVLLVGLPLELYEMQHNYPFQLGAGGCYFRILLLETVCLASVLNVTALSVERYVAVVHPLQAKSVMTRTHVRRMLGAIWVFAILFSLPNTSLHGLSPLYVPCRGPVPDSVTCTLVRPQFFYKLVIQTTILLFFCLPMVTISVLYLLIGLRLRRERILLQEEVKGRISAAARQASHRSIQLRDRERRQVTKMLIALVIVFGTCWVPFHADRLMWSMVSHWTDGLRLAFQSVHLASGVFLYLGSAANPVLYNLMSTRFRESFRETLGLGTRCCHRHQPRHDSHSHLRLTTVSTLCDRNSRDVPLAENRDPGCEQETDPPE
- METHOD_SUMMARY: cell-based or functional assay
Starred links: 1 amine or outer side, 2 acyl side, 3 side chain; linkers in the order of their positions; H or OH if unused. Non-standard residues stand in square brackets, D forms with d. *: point of attachment. Ttds = 1-amino-4,7,10-trioxa-13-tridecanamine succinimic acid spacer, O=C(CCC(=O)[*:2])NCCCOCCOCCOCCCN[*:1]; (PEG)2 40 kDa = branched PEG of 40 kDa linked via the Cys side-chain thiol (code C2 = Cys(PEG)2 40 kDa); Succinimide(1-Et,3-yl) = CCN1C(=O)CC(*)C1=O; Palmitoyl = CCCCCCCCCCCCCCCC(=O)*
Response field label takes true when EC50 (FLIPR) is strictly below 100 nM and false in all other cases.

Check if EC50 (FLIPR) falls below 100 nM for Ac-C(Succinimide(1-Et,3-yl))[Ttds]FLFRPRN-NH2 (SMILES CCN1C(=O)CC(SC[C@H](NC(C)=O)C(=O)NCCCOCCOCCOCCCNC(=O)CCC(=O)N[C@@H](Cc2ccccc2)C(=O)N[C@@H](CC(C)C)C(=O)N[C@@H](Cc2ccccc2)C(=O)N[C@@H](CCCNC(=N)N)C(=O)N2CCC[C@H]2C(=O)N[C@@H](CCCNC(=N)N)C(=O)N[C@@H](CC(N)=O)C(N)=O)C1=O) [NMU15] .
true

Please answer likewise for Ac-C((PEG)2 40 kDa)FQSPFASQSRGYFLFRPRN-NH2 [NMU20]
true

Also check Ac-C(PEG 20 kDa)C(PEG 20 kDa)FRVDEEFQSPFASQSRGYFLFRPRN-NH2 [NMU23]
false

Lookup Ac-C(Succinimide(1-Et,3-yl))C(Succinimide(1-Et,3-yl))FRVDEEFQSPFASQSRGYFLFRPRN-NH2 [NMU22]
true

Param item: Ac-C((PEG)2 40 kDa)[Ttds]FLFRPRN-NH2 [NMU16]
false

Can you handle Ac-C((PEG)2 40 kDa)FRVDEEFQSPFASQSRGYF[dA]WRPRN-NH2 [NMU14] next?
false

// repeat for Ac-C(PEG 20 kDa)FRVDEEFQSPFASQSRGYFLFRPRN-NH2 [NMU21] and report
false

Further, for Ac-C(Succinimide(1-Et,3-yl))ASQSRGYFLFRPRN-NH2 (SMILES CCN1C(=O)CC(SC[C@H](NC(C)=O)C(=O)N[C@@H](C)C(=O)N[C@@H](CO)C(=O)N[C@@H](CCC(N)=O)C(=O)N[C@@H](CO)C(=O)N[C@@H](CCCNC(=N)N)C(=O)NCC(=O)N[C@@H](Cc2ccc(O)cc2)C(=O)N[C@@H](Cc2ccccc2)C(=O)N[C@@H](CC(C)C)C(=O)N[C@@H](Cc2ccccc2)C(=O)N[C@@H](CCCNC(=N)N)C(=O)N2CCC[C@H]2C(=O)N[C@@H](CCCNC(=N)N)C(=O)N[C@@H](CC(N)=O)C(N)=O)C1=O) [NMU17] ?
true

Now consider Ac-C((PEG)2 40 kDa)ASQSRGYFLFRPRN-NH2 [NMU18] and answer again.
false

Note, next up: Palmitoyl-C(Succinimide(1-Et,3-yl))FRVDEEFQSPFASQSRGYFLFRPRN-NH2 [NMU24]
false
